// data source = patent US20170081347A1

- experimental details: Solubility pH = 6.8
- Format: physicochemical
- assay conditions: aqueous buffer
Label 1 when solubility is at or above 50 µM; otherwise label -1.

>  <molecule>
O=C(NC1CCN(Cc2ccccc2)C1)c1ccc(-c2ccccc2)cc1 (centres unmarked)

>  <class label>
-1

$$$$

Form field: solubility at least 50 µM? Entry: O=C(O)Cc1ccc(B2C=CC=CN2)cc1 1

Form field: solubility at least 50 µM? Entry: COc1ccccc1N1CCN(CCCCNC(=O)c2ccc(-c3ccccc3)cc2)CC1 -1

Form field: solubility at least 50 µM? Entry: COc1ccccc1N1CCN(CCCCNC(=O)c2ccc(B3C=CC=CN3)cc2)CC1 -1

Form field: solubility at least 50 µM? Entry: O=C(O)Cc1ccc(-c2ccccc2)cc1 1

----------
- experimental details: RLM Cl
- Type: in vitro ADME
Give measured RLM Cl for each item. Keep answers brief.
Answers are plain numbers, in mL/min/kg.

>  <compound>
O=C(NCc1ccncc1)c1ccc(B2C=CC=CN2)cc1

>  <RLM Cl / mL/min/kg>
39.6

$$$$
>  <compound>
O=C(NC1CCN(Cc2ccccc2)C1)c1ccc(-c2ccccc2)cc1 (stereo not drawn)

>  <RLM Cl / mL/min/kg>
43.7

$$$$

Report RLM Cl for every entry below.
1. CN(CCc1c[nH]c2ccccc12)C(=O)c1ccc(-c2ccccc2)cc1
2. COc1ccc2[nH]cc(CCNC(=O)c3ccc(B4C=CC=CN4)cc3)c2c1
3. COc1ccc2[nH]cc(CCNC(=O)c3ccc(-c4ccccc4)cc3)c2c1

1. 48.6
2. 51.3
3. 46.4

Report RLM Cl for every entry below.
1. COc1ccccc1N1CCN(CCCCNC(=O)c2ccc(-c3ccccc3)cc2)CC1
2. O=C(NC1CCN(Cc2ccccc2)C1)c1ccc(B2C=CC=CN2)cc1 (stereo not drawn)

1. 51.4
2. 48.5

----------
- target: CYP3A4 (Homo sapiens, UniProt P08684)
- Sequence (P08684 whole entry): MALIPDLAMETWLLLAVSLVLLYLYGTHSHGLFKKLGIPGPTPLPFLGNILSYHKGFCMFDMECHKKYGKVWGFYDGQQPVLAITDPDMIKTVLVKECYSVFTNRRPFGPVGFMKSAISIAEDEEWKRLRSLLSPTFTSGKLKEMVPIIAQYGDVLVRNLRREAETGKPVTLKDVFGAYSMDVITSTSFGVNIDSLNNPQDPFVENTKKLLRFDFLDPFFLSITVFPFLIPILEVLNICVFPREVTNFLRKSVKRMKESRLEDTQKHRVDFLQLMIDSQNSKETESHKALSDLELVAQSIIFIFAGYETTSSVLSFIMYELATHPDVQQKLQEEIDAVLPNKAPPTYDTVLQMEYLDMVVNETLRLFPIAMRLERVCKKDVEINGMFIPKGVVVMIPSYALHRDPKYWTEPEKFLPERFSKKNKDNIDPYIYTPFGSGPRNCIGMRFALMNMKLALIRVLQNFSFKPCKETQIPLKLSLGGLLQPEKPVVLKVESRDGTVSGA
reported endpoint: IC50

Measured IC50 (CYP3A4 (Homo sapiens, UniProt P08684)), entry CN(CCc1c[nH]c2ccccc12)C(=O)c1ccc(B2C=CC=CN2)cc1 : > 20 µM

----------
Reported pIC50 for target or system hERG (Homo sapiens, UniProt Q12809), by entry.
Numbers only, as −log10 of the molar value.

Before answering, review these 6 worked examples.
>  <molecule>
CC(C)[C@@H](CN1CCN(c2cccc(O)c2)[C@@H](C)C1)NC(=O)c1ccc(B2C=CCCN2)cc1

>  <reported endpoint>
pIC50

>  <observed>
5.04

$$$$
>  <molecule>
O=C(NC1CCN(Cc2ccccc2)C1)c1ccc(-c2ccccc2)cc1 (stereo not shown)

>  <reported endpoint>
pIC50

>  <observed>
6.49

$$$$
>  <molecule>
CN(CCc1c[nH]c2ccccc12)C(=O)c1ccc(B2C=CC=CN2)cc1

>  <reported endpoint>
pIC50

>  <observed>
5.24

$$$$
>  <molecule>
O=C(NC1CCN(Cc2ccccc2)C1)c1ccc(B2C=CC=CN2)cc1 (stereo not shown)

>  <reported endpoint>
pIC50

>  <observed>
5.85

$$$$
>  <molecule>
COc1ccccc1N1CCN(CCCCNC(=O)c2ccc(-c3ccccc3)cc2)CC1

>  <reported endpoint>
pIC50

>  <observed>
7.38

$$$$
>  <molecule>
COc1ccc2[nH]cc(CCNC(=O)c3ccc(B4C=CC=CN4)cc3)c2c1

>  <reported endpoint>
pIC50

>  <observed>
5.10

$$$$

Report pIC50 for every entry below.
1. COc1ccc2[nH]cc(CCNC(=O)c3ccc(-c4ccccc4)cc3)c2c1
2. COc1ccccc1N1CCN(CCCCNC(=O)c2ccc(B3C=CC=CN3)cc2)CC1

1. 4.96
2. 6.77
